# assay: Solubility
# Type: physicochemical
# settings: cell culture, plasma or biological fluid; read-out: limit of solubility in cell culture
parameter: solubility (µM)
I only need the number, in µM, no unit after it.

Data request: // solubility lookup, key: "COC(=O)C[C@@H](C(=O)OC)N1C(=O)c2cc(N3C(=O)C=CC3=O)cc3cc(N4C(=O)C=CC4=O)cc(c23)C1=O"
Data returned: 300

====

# assay: Fluorescence spectral properties of fluorogens and their ethanethiol adducts
# Format: physicochemical
# settings: 10:90 DMSO: water
Each record here notes measured λexc.
Express your answer as a number followed by its unit.

{"compound": "CCSC1CC(=O)N(c2cc3c4c(cc(N5C(=O)CC(SCC)C5=O)cc4c2)C(=O)N([C@@H](CC(=O)OC)C(=O)OC)C3=O)C1=O (stereo partly shown)", "λexc": "511 nm"}

Data request: // λexc lookup, key: CCSC1CC(=O)N(c2ccc(-c3cc4cc(N5C(=O)CC(SCC)C5=O)ccc4oc3=O)cc2)C1=O (stereo not shown)
Data returned: 384 nm

Data request: // λexc lookup, key: "COC(=O)C[C@@H](C(=O)OC)N1C(=O)c2cc(N3C(=O)C=CC3=O)cc3cc(N4C(=O)C=CC4=O)cc(c23)C1=O"
Data returned: 511 nm

Data request: // λexc lookup, key: "O=C1C=CC(=O)N1c1ccc(-c2cc3cc(N4C(=O)C=CC4=O)ccc3oc2=O)cc1"
Data returned: 384 nm

====

# assay: Fluorescence spectral properties of fluorogens and their ethanethiol adducts
# Assay type: physicochemical
# settings: in DMSO
parameter: Stokes shift

Past entries and their recorded results:
{"molecule": "CCSC1C(=O)N(c2ccc3oc(=O)c(N4C(=O)C(SCC)C(C(=O)OC)C4=O)cc3c2)C(=O)C1C(=O)OC (stereo not shown)", "parameter": "Stokes shift", "result": "121 nm"}
{"molecule": "COC(=O)C1=CC(=O)N(c2ccc3oc(=O)c(N4C(=O)C=C(C(=O)OC)C4=O)cc3c2)C1=O", "parameter": "Stokes shift", "result": "115 nm"}
{"molecule": "CCSC1C(=O)N(c2ccc3oc(=O)c(N4C(=O)C(C)C(SCC)C4=O)cc3c2)C(=O)C1C (stereo not shown)", "parameter": "Stokes shift", "result": "82 nm"}

Data request: // Stokes shift lookup, key: "CC1=CC(=O)N(c2ccc3oc(=O)c(N4C(=O)C=C(C)C4=O)cc3c2)C1=O"
Data returned: 82 nm

====

Each record here notes measured λexc.
# assay: Fluorescence spectral properties of fluorogens and their ethanethiol adducts
# Format: physicochemical
# settings: in DMSO
I only need the number, in nm, no unit after it.

Data request: // λexc lookup, key: CC1=CC(=O)N(c2ccc3oc(=O)c(N4C(=O)C=C(C)C4=O)cc3c2)C1=O [Compound 6]
Data returned: 373

====

# assay: Fluorescence spectral properties of fluorogens and their ethanethiol adducts
# Format: physicochemical
# settings: 10:90 DMSO: water
parameter: Stokes shift (nm)
I only need the number, in nm, no unit after it.

{"molecule": "CCSC1CC(=O)N(c2ccc(-c3cc4cc(N5C(=O)CC(SCC)C5=O)ccc4oc3=O)cc2)C1=O (stereo not shown) [Compound 14]", "readout-units": "nm", "number": 76}

Data request: // Stokes shift lookup, key: O=C1C=CC(=O)N1c1ccc(-c2cc3cc(N4C(=O)C=CC4=O)ccc3oc2=O)cc1 [Compound 13]
Data returned: 76

Data request: // Stokes shift lookup, key: COC(=O)C[C@@H](C(=O)OC)N1C(=O)c2cc(N3C(=O)C=CC3=O)cc3cc(N4C(=O)C=CC4=O)cc(c23)C1=O [Compound 20]
Data returned: 67

Data request: // Stokes shift lookup, key: CCSC1CC(=O)N(c2cc3c4c(cc(N5C(=O)CC(SCC)C5=O)cc4c2)C(=O)N([C@@H](CC(=O)OC)C(=O)OC)C3=O)C1=O (stereo partly shown) [Compound 21]
Data returned: 67

====

# assay: Fluorescence spectral properties of fluorogens and their ethanethiol adducts
# Format: physicochemical
# settings: in DMSO
Each record here notes measured λexc.
Express your answer as a number followed by its unit.

{"compound": "CCSC1C(=O)N(c2ccc3oc(=O)c(N4C(=O)C(C)C(SCC)C4=O)cc3c2)C(=O)C1C (stereo not drawn) [Compound 9]", "parameter": "λexc", "result": "373 nm"}
{"compound": "CCSC1C(=O)N(c2ccc3oc(=O)c(N4C(=O)C(SCC)C(C(=O)OC)C4=O)cc3c2)C(=O)C1C(=O)OC (stereo not drawn) [Compound 8]", "parameter": "λexc", "result": "336 nm"}

Could you now consider this next compound?
Data request: // λexc lookup, key: COC(=O)C1=CC(=O)N(c2ccc3oc(=O)c(N4C(=O)C=C(C(=O)OC)C4=O)cc3c2)C1=O [Compound 5]
Data returned: 332 nm

meta.source: patent US7700375B2
